pKd: recorded values
target: Dna2 E675A (nuclease-defective) (UniProt P38859 1-1522, E675A); assay: EMSA
Sequence (P38859 whole entry E675A): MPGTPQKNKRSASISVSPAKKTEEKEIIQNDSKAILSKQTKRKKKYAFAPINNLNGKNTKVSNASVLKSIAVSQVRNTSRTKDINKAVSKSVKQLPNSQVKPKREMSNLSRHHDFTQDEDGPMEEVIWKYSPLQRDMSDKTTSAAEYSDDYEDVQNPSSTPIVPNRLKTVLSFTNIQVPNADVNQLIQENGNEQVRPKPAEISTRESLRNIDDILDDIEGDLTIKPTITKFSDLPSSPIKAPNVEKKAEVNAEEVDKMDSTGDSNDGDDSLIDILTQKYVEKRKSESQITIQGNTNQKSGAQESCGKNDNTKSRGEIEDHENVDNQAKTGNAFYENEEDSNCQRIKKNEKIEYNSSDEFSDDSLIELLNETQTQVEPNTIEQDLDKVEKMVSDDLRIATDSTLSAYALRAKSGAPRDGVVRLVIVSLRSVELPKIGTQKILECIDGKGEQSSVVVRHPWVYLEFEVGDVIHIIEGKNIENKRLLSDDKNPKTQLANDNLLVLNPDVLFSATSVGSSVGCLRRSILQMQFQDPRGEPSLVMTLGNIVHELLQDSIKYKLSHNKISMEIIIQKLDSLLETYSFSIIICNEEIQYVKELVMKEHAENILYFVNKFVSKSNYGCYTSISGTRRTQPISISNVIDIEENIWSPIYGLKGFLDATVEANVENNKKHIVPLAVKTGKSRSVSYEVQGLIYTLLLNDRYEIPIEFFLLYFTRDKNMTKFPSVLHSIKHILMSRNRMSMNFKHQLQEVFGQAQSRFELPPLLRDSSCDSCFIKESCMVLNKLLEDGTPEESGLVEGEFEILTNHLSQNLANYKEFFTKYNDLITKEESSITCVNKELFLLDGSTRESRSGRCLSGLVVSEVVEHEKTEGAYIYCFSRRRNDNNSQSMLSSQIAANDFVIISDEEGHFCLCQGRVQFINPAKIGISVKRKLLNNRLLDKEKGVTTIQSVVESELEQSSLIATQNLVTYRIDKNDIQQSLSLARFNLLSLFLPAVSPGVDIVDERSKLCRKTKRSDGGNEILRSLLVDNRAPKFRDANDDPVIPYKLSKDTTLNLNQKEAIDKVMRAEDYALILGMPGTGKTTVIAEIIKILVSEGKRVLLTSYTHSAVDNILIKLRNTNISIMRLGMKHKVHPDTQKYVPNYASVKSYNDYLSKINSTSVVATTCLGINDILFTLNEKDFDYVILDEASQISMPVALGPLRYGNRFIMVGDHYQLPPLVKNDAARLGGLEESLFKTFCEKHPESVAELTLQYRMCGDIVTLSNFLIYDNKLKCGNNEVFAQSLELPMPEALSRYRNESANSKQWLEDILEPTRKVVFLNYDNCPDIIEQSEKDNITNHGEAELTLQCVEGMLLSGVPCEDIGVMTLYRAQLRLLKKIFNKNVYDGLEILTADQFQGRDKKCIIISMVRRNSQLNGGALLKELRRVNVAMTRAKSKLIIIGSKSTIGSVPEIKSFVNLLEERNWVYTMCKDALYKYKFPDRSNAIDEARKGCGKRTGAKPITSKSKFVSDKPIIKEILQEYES
For clarity, pKd is expressed as the negative log10 of concentration in mol/L.

Recorded pKd, per entry:
Give a short answer stating reported pKd for Fork (structured_DNA) DNA: TTCACGAGATTTACTTATTTCACTGCGGCTACATGATGCATCGTTAGGCGATTCCGCCTAACGATGCATCATGTTGTTACCCTTTGA .
8.04

Give a short answer stating reported pKd for Flap (30-nt 5'-flap) (structured_DNA) DNA: TTCACGAGATTTACTTATTTCACTGCGGCTACATGATGCATCGTTAGGCGATTCCGCCTAACGATGCATCATGTCGCGAACCCTATTTAGGGTTCGCG .
8.08

Further cases:
Give a short answer stating reported pKd for Gap (20-nt) (structured_DNA) DNA: ACATGATGCATCGTTAGGCGATTCCGCCTAACGATGCATCATGTTTTTTTTTTTTTTTTTTTTTCGCGAACCCTATTTAGGGTTCGCG .
8.17

Give a short answer stating reported pKd for 5'-Tail (structured_DNA) DNA: TTCACGAGATTTACTTATTTCACTGCGGCTACATGATGCATCGTTAGGCGATTCCGCCTAACGATGCATCATGT .
8.07

Give a short answer stating reported pKd for Double-Flap (structured_DNA) DNA: TTCACGAGATTTACTTATTTCACTGCGGCTACATGATGCATCGTTAGGCGATTCCGCCTAACGATGCATCATGTCGCGAACCCTATTTAGGGTTCGCGT .
8.15
